Provide the recorded TG for the entries that follow.
- Organism: Rattus norvegicus
- Experimental details: Open TG-GATES - Regimen: Single
- Type: toxicity, organism-based, Sprague-Dawley
- Set-up: regimen Single, gender Male, age 6 weeks
- Applied conditions: in vivo, po, 0 mg/kg, 3 h, tissue Plasma, route gavage, dose level Control
Numbers only, in mg/dL.

[[record]]
compound = "CCOC(=O)C(C)(C)Oc1ccc(Cl)cc1 [CLOFIBRATE]"
reading = 233.2


Items follow; give TG for each.
1. Cc1ccc2cc3c(ccc4ccccc43)c3c2c1CC3
2. C[C@H]1C(=O)O[C@@H]2CCN3CC=C(COC(=O)[C@](C)(O)[C@]1(C)O)[C@H]23

[142.8, 58.6]

// for each compound below, give its TG
1. O=[N+]([O-])c1ccc(O)c([N+](=O)[O-])c1
2. Cn1cc[nH]c1=S
3. Cc1cccc(C)c1OCC(C)N (centres undefined)
4. C[C@H]1O[C@H](O[C@H]2[C@H](O)[C@@H](O)[C@@H](O[C@H]3[C@H](O)[C@@H](O)C(O)O[C@@H]3CO)O[C@@H]2CO)[C@H](O)[C@@H](O)[C@@H]1N[C@H]1C=C(CO)[C@@H](O)[C@H](O)[C@H]1O (some centres undefined)

1. 52.4
2. 55.6
3. 62.8
4. 46.8

// for each compound below, give its TG
1. C=C(C)[C@H]1Cc2c(ccc3c2O[C@@H]2COc4cc(OC)c(OC)cc4[C@@H]2C3=O)O1
2. OCCN1CCN(CCCN2c3ccccc3Sc3ccc(C(F)(F)F)cc32)CC1

1: 61.2; 2: 53.6

###

- Species on record: Rattus norvegicus
- Experimental details: Open TG-GATES - Regimen: Single
- Format: toxicity, organism-based, Sprague-Dawley
- Set-up: regimen Single, gender Male, age 6 weeks
- Applied conditions: in vivo, po, 0 mg/kg, 3 h, tissue Blood, route gavage, dose level Control
Use rule met when the recorded Lym is no lower than 80%; use rule not met when it is lower.

Solved entries (count: 3):
[[record]]
molecule = "C[C@H]1C(=O)O[C@@H]2CCN3CC=C(COC(=O)[C@](C)(O)[C@]1(C)O)[C@H]23 [MONOCROTALINE]"
assigned_label = "rule not met"

[[record]]
molecule = "O=[N+]([O-])c1ccc(O)c([N+](=O)[O-])c1 [2,4-DINITROPHENOL]"
assigned_label = "rule not met"

[[record]]
molecule = "Cn1cc[nH]c1=S [METHIMAZOLE]"
assigned_label = "rule met"


Let us examine a further case.
Dear colleague, could you confirm whether C=C(C)[C@H]1Cc2c(ccc3c2O[C@@H]2COc4cc(OC)c(OC)cc4[C@@H]2C3=O)O1 [ROTENONE] has Lym at or above 80%?
rule not met

###

- Species on record: Rattus norvegicus
- Experimental details: Open TG-GATES - Regimen: Single
- Assay type: toxicity, organism-based, Sprague-Dawley
- Design: regimen Single, gender Male, age 6 weeks
- Applied conditions: in vivo, po, 0 mg/kg, 9 h, tissue Kidney, route gavage, dose level Control
Value kind: KIDNEY_TOTAL (g)
Answers are plain numbers, in g.

Here's what some known entries look like.
[[record]]
compound = "OCCN1CCN(CCCN2c3ccccc3Sc3ccc(C(F)(F)F)cc32)CC1"
reading = 1.9

[[record]]
compound = "C[C@H]1C(=O)O[C@@H]2CCN3CC=C(COC(=O)[C@](C)(O)[C@]1(C)O)[C@H]23"
reading = 1.9

[[record]]
compound = "Cc1ccc2cc3c(ccc4ccccc43)c3c2c1CC3"
reading = 1.9

[[record]]
compound = "Cc1cccc(C)c1OCC(C)N (stereo unspecified)"
reading = 1.8

[[record]]
compound = "CCOC(=O)C(C)(C)Oc1ccc(Cl)cc1 [CLOFIBRATE]"
reading = 1.9


Proceeding to the next compound to report its KIDNEY_TOTAL.
Please give the measured KIDNEY_TOTAL for this compound: C[C@H]1O[C@H](O[C@H]2[C@H](O)[C@@H](O)[C@@H](O[C@H]3[C@H](O)[C@@H](O)C(O)O[C@@H]3CO)O[C@@H]2CO)[C@H](O)[C@@H](O)[C@@H]1N[C@H]1C=C(CO)[C@@H](O)[C@H](O)[C@H]1O (stereo partly specified)
1.8
